# Assay system: T1, recombinant human TIGIT (human, UniProt Q495A1 22-141, limits assumed)
# T1 construct: recombinant human TIGIT used in Carterra SPR; also called hTIGIT
# T1 sequence (looked up): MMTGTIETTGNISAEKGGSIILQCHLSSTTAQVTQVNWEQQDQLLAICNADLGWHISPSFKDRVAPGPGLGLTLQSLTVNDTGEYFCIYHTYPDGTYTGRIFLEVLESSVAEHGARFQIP
# Experiment notes: SPR Carterra, average
Reported metric: log10 Kd (log10 of the value in nM)

{"columns": ["Binder", "log10 Kd"],
 "data": [
  ["TIGIT-SC77 (Fc fusion, VHH-Fc fusion in assay) VHH: EVQLVESGGGLVQPGGSLRLSCAASGGAFSTVAMGWFRQAPGKEREAVASIWRSGDSTYYADSVKGRFTISADNSKNTAYLQMNSLKPEDTAVYYCASSYSSSSGLGDIWGQGTLVTVSS", 0.32],
  ["TIGIT-SC132 (Fc fusion, VHH-Fc fusion in assay) VHH: EVQLVESGGGLVQPGGSLRLSCAASGFTLENNMMGWFRQAPGKEREFVAAISASGTLRAYADSVKGRFTISADNSKNTAYLQMNSLKPEDTAVYYCATWRPNRGRYYDWYFDLWGQGTLVTVSS", 1.66],
  ["TIGIT-SC204 (Fc fusion, VHH-Fc fusion in assay) VHH: EVQLVESGGGLVQPGGSLRLSCAASGFLFNSYWMVWFRQAPGKEREFVAAIWRSGTLKAYADSVKGRFTISADNSKNTAYLQMNSLKPEDTAVYYCAADVNYGSTWRNWGQGTLVTVSS", 1.82],
  ["TIGIT-SC4 (Fc fusion, VHH-Fc fusion in assay) VHH: EVQLVESGGGLVQPGGSLRLSCAASGSIDRINAMGWFRQATGKEREWVASVLRGGYTWYADSVKGRFTISADNSKNTAYLQMNSLKPEDTAVYYCARDSYSTSFWFDPWGQGTLVTVSS", 0.80],
  ["TIGIT-SC92 (Fc fusion, VHH-Fc fusion in assay) VHH: EVQLVESGGGLVQPGGSLRLSCAASGSTIENYAMGWFRQAPGKEREFVAAIDWSGGSTYYADSVKGRFTISADNSKNTAYLQMNSLKPEDTAVYYCARWRSIWSGYDDYYYMDVWGQGTLVTVSS", 2.02],
  ["TIGIT-SC87 (Fc fusion, VHH-Fc fusion in assay) VHH: EVQLVESGGGLVQPGGSLRLSCAASGSIDTINTMGWFRQAPGKEREFVAAITPSSRTTYYVDSVKGRFTISADNSKNTAYLQMNSLKPEDTAVYYCARWGGVTFGGVYPLEYWGQGTLVTVSS", 1.46],
  ["TIGIT-SC182 (Fc fusion, VHH-Fc fusion in assay) VHH: EVQLVESGGGLVQPGGSLRLSCAASGFTFSSSSMGWFRQAPGKEREFVAAINWSGGSTSYADSVKGRFTISADNSKNTAYLQMNSPKPEDTAVYYCAKDRSYSFDYWGQGTLVTVSS", 1.78]
]}
